Here, each record is paired with measured remaining at 0.5 h, 1 μM data.
assay: in vitro; conditions: mouse, microsomes, pH 7.4
*1 amine or outer side, *2 acyl side, *3 side chain or, on linkers, in order; H or OH if unused. Where a SMILES comes first, the peptide text is derived from it. [ ]: non-standard residue; d: D form. Gly(N-4-hydroxybenzyl) = O=C(O)CNCc1ccc(O)cc1; X1 = O=C(CN(Cc1ccc(C(F)(F)F)cc1)[*:1])[*:2]; Gly(N-cPent) = O=C(O)CNC1CCCC1; Gly(NCH2cPr) = O=C(O)CNCC1CC1; Nphe = O=C(O)CNCc1ccccc1

[
  {
    "compound": "NCC(=O)N(CC(=O)N(CC(=O)N(CC(=O)N(CC(N)=O)Cc1ccccc1)Cc1ccc(O)cc1)Cc1ccccc1)C1CCCC1 [DS-25, Ngly-Ncpe-Nbn-Ntyr-Nbn-NH2] (H-G[Gly(N-cPent)][Nphe][Gly(N-4-hydroxybenzyl)][Nphe]-NH2)",
    "remaining at 0.5 h, 1 μM": "76%"
  },
  {
    "compound": "NCC(=O)N(CCC(=O)O)CC(=O)N(CC(=O)N(CC(=O)N(CC(N)=O)Cc1ccccc1)Cc1ccc(C(F)(F)F)cc1)Cc1ccc(C(F)(F)F)cc1",
    "remaining at 0.5 h, 1 μM": "84.4%"
  },
  {
    "compound": "NCC(=O)N(CC(=O)N(CC(=O)N(CC(=O)N(CC(N)=O)Cc1ccccc1)Cc1ccc(O)cc1)Cc1ccc(O)cc1)CC1CC1 [DS-31, Ngly-Ncpr-Ntyr-Ntyr-Nbn-NH2] (H-G[Gly(NCH2cPr)][Gly(N-4-hydroxybenzyl)][Gly(N-4-hydroxybenzyl)][Nphe]-NH2)",
    "remaining at 0.5 h, 1 μM": "72.2%"
  },
  {
    "compound": "NCC(=O)N(CC(=O)N(CC(=O)N(CC(=O)N(CC(N)=O)Cc1ccccc1)Cc1ccc(O)cc1)Cc1ccc(O)cc1)C1CCCC1 [DS-16, Ngly-Ncpe-Ntyr-Ntyr-Nbn-NH2] (H-G[Gly(N-cPent)][Gly(N-4-hydroxybenzyl)][Gly(N-4-hydroxybenzyl)][Nphe]-NH2)",
    "remaining at 0.5 h, 1 μM": "75.5%"
  },
  {
    "compound": "NCC(=O)N(CC(=O)N(CC(=O)N(CC(=O)N(CC(N)=O)Cc1ccc(C(F)(F)F)cc1)Cc1ccccc1)Cc1ccccc1)C1CCCC1 [DS-47, Ngly-Ncpe-Nbn-Ntfb-Nbn-NH2] (H-G[Gly(N-cPent)][Nphe][Nphe][X1]-NH2)",
    "remaining at 0.5 h, 1 μM": "95.3%"
  }
]
